organism: Mus musculus; experiment: Selectivity ratio of EC50 for mouse TRH-R1 to EC50 for mouse TRH-R2 by FLIPR assay
measurementType: Ratio EC50

a = CCCn1c(I)nc(C[C@H](NC(=O)[C@@H]2CCC(=O)N2)C(=O)N2CCC[C@H]2C(N)=O)c1I
b = Cn1c(I)nc(C[C@H](NC(=O)[C@@H]2CCC(=O)N2)C(=O)N2CCC[C@H]2C(N)=O)c1I
c = CCn1c(I)nc(C[C@H](NC(=O)[C@@H]2CCC(=O)N2)C(=O)N2CCC[C@H]2C(N)=O)c1I
Q: // sort entries: Ratio EC50, high to low List the labels, following the order given in the request.
A: b, a, c
